These measurements were taken from patent US12612397B2.

# Tested on: MDR1
# METHOD: in vitro
# ASSAY CONTEXT: dog, MDCK-MDR1, pH 7.4
Let's look at some molecules and their measured efflux ratio at 120 min, 5 μM.
Please reply with the value in numeric form only.

Worked examples, 5 molecules total:
> print(dat)
                                   molecule  measured.value
1  CN(c1ncc(-c2cc3ccncc3s2)nn1)[C@@H]1C[C@H]2CC[C@H](N2)[C@@H]1F (single isomer, unassigned)               3
2  CN(c1ncc(-c2ccc(-c3cn[nH]c3)cc2O)nn1)[C@@H]1C[C@H]2CC[C@H](N2)[C@@H]1F (single isomer, unassigned)              15
3  CN(c1ncc(-c2cc3ccncc3s2)nn1)[C@H]1C[C@@H]2CC[C@@H](N2)[C@H]1F (single isomer, unassigned)               4
4  CN(c1ncc(-c2ccc(-c3cn[nH]c3)cc2O)nn1)[C@H]1C[C@@H]2CC[C@@H](N2)[C@H]1F (single isomer, unassigned)              11
5  CN(c1ncc(-c2ccc(-c3cnn(C)c3)cc2O)nn1)[C@H]1C[C@@H]2CCC[C@@H](N2)[C@H]1F (single isomer, unassigned)               5

[Q] Consider the molecule shown here: CN(C)C(=O)c1cc2cc(O)c(-c3cnc(N(C)[C@H]4C[C@@H]5CC[C@@H](N5)[C@H]4F)nn3)cc2o1 (single isomer, unassigned) What is its recorded efflux ratio at 120 min, 5 μM?
[A] 24

[Q] Consider the molecule shown here: CN(C)C(=O)c1cc2cc(O)c(-c3cnc(N(C)[C@@H]4C[C@H]5CC[C@H](N5)[C@@H]4F)nn3)cc2o1 (single isomer, unassigned) What is its recorded efflux ratio at 120 min, 5 μM?
[A] 24

[Q] Consider the molecule shown here: CN(c1ncc(-c2ccc(-c3cnn(C)c3)cc2O)nn1)[C@@H]1C[C@H]2CCC[C@H](N2)[C@@H]1F (single isomer, unassigned) What is its recorded efflux ratio at 120 min, 5 μM?
[A] 7

###

# Test system: MDR1
# METHOD: in vitro
# ASSAY CONTEXT: dog, MDCK-MDR1, pH 7.4
Let's look at some compounds and their measured Papp B→A at 120 min, 5 μM.

> print(dat)
                                   compound   measured.value
1  CN(C)C(=O)c1cc2cc(O)c(-c3cnc(N(C)[C@@H]4C[C@H]5CC[C@H](N5)[C@@H]4F)nn3)cc2o1 (single isomer, unassigned)  61.2 ×10⁻⁶ cm/s
2  CN(c1ncc(-c2cc3ccncc3s2)nn1)[C@H]1C[C@@H]2CC[C@@H](N2)[C@H]1F (single isomer, unassigned)  49.6 ×10⁻⁶ cm/s

[Q] Consider the compound shown here: CN(c1ncc(-c2ccc(-c3cn[nH]c3)cc2O)nn1)[C@@H]1C[C@H]2CC[C@H](N2)[C@@H]1F (single isomer, unassigned) What is its recorded Papp B→A at 120 min, 5 μM?
[A] 51.6 ×10⁻⁶ cm/s

###

# Tested on: MDR1
# METHOD: in vitro
# ASSAY CONTEXT: dog, MDCK-MDR1, pH 7.4
ENDPOINT NAME: Papp B→A at 120 min, 5 μM (nm/s)
A number alone suffices; assume nm/s.

Worked examples, 3 compounds total:
> print(dat)
                                   compound  system.tested  measured.value
1  CN(c1ncc(-c2ccc(-c3cn[nH]c3)cc2O)nn1)[C@H]1C[C@@H]2CC[C@@H](N2)[C@H]1F (single isomer, unassigned)           MDR1             332
2  CN(c1ncc(-c2ccc(-c3cnn(C)c3)cc2O)nn1)[C@H]1C[C@@H]2CCC[C@@H](N2)[C@H]1F (single isomer, unassigned)           MDR1             329
3  CN(c1ncc(-c2ccc(-c3cnn(C)c3)cc2O)nn1)[C@@H]1C[C@H]2CCC[C@H](N2)[C@@H]1F (single isomer, unassigned)           MDR1             303

[Q] What is its Papp B→A at 120 min, 5 μM for MDR1? Entry: CN(c1ncc(-c2cc3ccncc3s2)nn1)[C@@H]1C[C@H]2CC[C@H](N2)[C@@H]1F (single isomer, unassigned)
[A] 373

[Q] What is its Papp B→A at 120 min, 5 μM for MDR1? Entry: CN(C)C(=O)c1cc2cc(O)c(-c3cnc(N(C)[C@H]4C[C@@H]5CC[C@@H](N5)[C@H]4F)nn3)cc2o1 (single isomer, unassigned)
[A] 585

###

Let's look at some molecules and their measured MDCK-MDR1: % Recov A-B.
# Tested on: MDR1-MDCK cell monolayers
# ASSAY CONTEXT: dog, MDCK-MDR1, 120 min, 5 μM, pH 7.4
A number alone suffices; assume %.

> print(dat)
                                   molecule              system.tested  measured.value
1  CN(c1ncc(-c2ccc(-c3cn[nH]c3)cc2O)nn1)[C@@H]1C[C@H]2CC[C@H](N2)[C@@H]1F (single isomer, unassigned)  MDR1-MDCK cell monolayers              86

[Q] Consider the molecule shown here: CN(c1ncc(-c2ccc(-c3cn[nH]c3)cc2O)nn1)[C@H]1C[C@@H]2CC[C@@H](N2)[C@H]1F (single isomer, unassigned) What is its recorded MDCK-MDR1: % Recov A-B?
[A] 78

[Q] Consider the molecule shown here: CN(c1ncc(-c2cc3ccncc3s2)nn1)[C@H]1C[C@@H]2CC[C@@H](N2)[C@H]1F (single isomer, unassigned) What is its recorded MDCK-MDR1: % Recov A-B?
[A] 79

[Q] Consider the molecule shown here: CN(c1ncc(-c2ccc(-c3cnn(C)c3)cc2O)nn1)[C@H]1C[C@@H]2CCC[C@@H](N2)[C@H]1F (single isomer, unassigned) What is its recorded MDCK-MDR1: % Recov A-B?
[A] 69

[Q] Consider the molecule shown here: CN(c1ncc(-c2cc3ccncc3s2)nn1)[C@@H]1C[C@H]2CC[C@H](N2)[C@@H]1F (single isomer, unassigned) What is its recorded MDCK-MDR1: % Recov A-B?
[A] 87

[Q] Consider the molecule shown here: CN(C)C(=O)c1cc2cc(O)c(-c3cnc(N(C)[C@@H]4C[C@H]5CC[C@H](N5)[C@@H]4F)nn3)cc2o1 (single isomer, unassigned) What is its recorded MDCK-MDR1: % Recov A-B?
[A] 92

[Q] Consider the molecule shown here: CN(C)C(=O)c1cc2cc(O)c(-c3cnc(N(C)[C@H]4C[C@@H]5CC[C@@H](N5)[C@H]4F)nn3)cc2o1 (single isomer, unassigned) What is its recorded MDCK-MDR1: % Recov A-B?
[A] 88

[Q] Consider the molecule shown here: CN(c1ncc(-c2ccc(-c3cnn(C)c3)cc2O)nn1)[C@@H]1C[C@H]2CCC[C@H](N2)[C@@H]1F (single isomer, unassigned) What is its recorded MDCK-MDR1: % Recov A-B?
[A] 81

###

Let's look at some compounds and their measured MDCK-MDR1: % Recov B-A.
# System: MDR1-MDCK cell monolayers
# ASSAY CONTEXT: dog, MDCK-MDR1, 120 min, 5 μM, pH 7.4

> print(dat)
                                   compound           endpoint.name  measured.value
1  CN(c1ncc(-c2ccc(-c3cnn(C)c3)cc2O)nn1)[C@@H]1C[C@H]2CCC[C@H](N2)[C@@H]1F (single isomer, unassigned) [Compound 2A]  MDCK-MDR1: % Recov B-A             84%
2  CN(c1ncc(-c2ccc(-c3cnn(C)c3)cc2O)nn1)[C@H]1C[C@@H]2CCC[C@@H](N2)[C@H]1F (single isomer, unassigned) [Compound 2B]  MDCK-MDR1: % Recov B-A             83%
3  CN(C)C(=O)c1cc2cc(O)c(-c3cnc(N(C)[C@@H]4C[C@H]5CC[C@H](N5)[C@@H]4F)nn3)cc2o1 (single isomer, unassigned) [Compound 9A]  MDCK-MDR1: % Recov B-A            100%

[Q] Consider the compound shown here: CN(c1ncc(-c2ccc(-c3cn[nH]c3)cc2O)nn1)[C@H]1C[C@@H]2CC[C@@H](N2)[C@H]1F (single isomer, unassigned) [Compound 1B] What is its recorded MDCK-MDR1: % Recov B-A?
[A] 90%

[Q] Consider the compound shown here: CN(c1ncc(-c2ccc(-c3cn[nH]c3)cc2O)nn1)[C@@H]1C[C@H]2CC[C@H](N2)[C@@H]1F (single isomer, unassigned) [Compound 1A] What is its recorded MDCK-MDR1: % Recov B-A?
[A] 89%

[Q] Consider the compound shown here: CN(C)C(=O)c1cc2cc(O)c(-c3cnc(N(C)[C@H]4C[C@@H]5CC[C@@H](N5)[C@H]4F)nn3)cc2o1 (single isomer, unassigned) [Compound 9B] What is its recorded MDCK-MDR1: % Recov B-A?
[A] 97%

[Q] Consider the compound shown here: CN(c1ncc(-c2cc3ccncc3s2)nn1)[C@H]1C[C@@H]2CC[C@@H](N2)[C@H]1F (single isomer, unassigned) [Compound 8B] What is its recorded MDCK-MDR1: % Recov B-A?
[A] 81%

[Q] Consider the compound shown here: CN(c1ncc(-c2cc3ccncc3s2)nn1)[C@@H]1C[C@H]2CC[C@H](N2)[C@@H]1F (single isomer, unassigned) [Compound 8A] What is its recorded MDCK-MDR1: % Recov B-A?
[A] 93%
